Please respond with reported Ki for every item in the list.
Target: Human α2δ-1 subunit of Cav2.2 calcium channel (Homo sapiens)
Sequence (P54289 25-1103): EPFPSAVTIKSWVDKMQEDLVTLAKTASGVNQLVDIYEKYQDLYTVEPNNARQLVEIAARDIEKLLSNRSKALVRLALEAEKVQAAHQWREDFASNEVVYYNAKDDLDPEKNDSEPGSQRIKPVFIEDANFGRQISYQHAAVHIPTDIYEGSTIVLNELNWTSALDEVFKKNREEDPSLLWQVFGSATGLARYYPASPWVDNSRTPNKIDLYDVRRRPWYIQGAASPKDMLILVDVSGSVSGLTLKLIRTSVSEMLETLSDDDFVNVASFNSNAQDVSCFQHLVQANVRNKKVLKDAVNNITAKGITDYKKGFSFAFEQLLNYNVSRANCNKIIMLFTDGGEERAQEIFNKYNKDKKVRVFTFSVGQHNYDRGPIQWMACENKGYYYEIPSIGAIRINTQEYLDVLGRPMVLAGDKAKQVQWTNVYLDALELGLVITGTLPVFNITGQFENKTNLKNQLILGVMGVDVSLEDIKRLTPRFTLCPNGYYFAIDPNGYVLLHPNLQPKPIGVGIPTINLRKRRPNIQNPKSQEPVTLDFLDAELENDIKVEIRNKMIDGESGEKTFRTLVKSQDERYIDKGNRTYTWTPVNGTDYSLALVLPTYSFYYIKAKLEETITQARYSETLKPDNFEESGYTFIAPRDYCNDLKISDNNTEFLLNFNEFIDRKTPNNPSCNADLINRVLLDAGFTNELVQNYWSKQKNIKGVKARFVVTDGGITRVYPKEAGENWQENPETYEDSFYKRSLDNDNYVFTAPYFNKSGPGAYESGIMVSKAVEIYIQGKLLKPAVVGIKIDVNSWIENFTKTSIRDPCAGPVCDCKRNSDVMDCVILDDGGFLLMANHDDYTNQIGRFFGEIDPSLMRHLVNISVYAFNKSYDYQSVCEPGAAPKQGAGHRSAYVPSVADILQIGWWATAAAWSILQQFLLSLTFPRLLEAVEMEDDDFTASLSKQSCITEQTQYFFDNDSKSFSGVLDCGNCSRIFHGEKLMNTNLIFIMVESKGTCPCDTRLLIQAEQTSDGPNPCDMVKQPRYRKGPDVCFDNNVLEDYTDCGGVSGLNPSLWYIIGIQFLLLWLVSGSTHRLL
Assay: Human α2δ-1 subunit of Cav2.2 calcium channel assay ([3H]-gabapentin binding)
Conditions: binding to the α2δ-1 subunit of voltage-gated calcium channels expressed as Ki; + also covers inhibition between 1% and 50%

Known results for compounds:
>  <Compound>
Cc1nn2c([C@@H]3CCCN(Cc4ccc(Cl)cc4)C3)ccnc2c1CNC[C@@H]1CCOC(C)(C)C1 (racemic)

>  <Ki>
< 500 nM

$$$$
>  <Compound>
COc1ncccc1-c1cnn2c(C3CCCN(Cc4ccccc4)C3)ccnc12 (stereo not shown)

>  <Ki>
500 to 5000 nM

$$$$
>  <Compound>
Cc1nn2c([C@H]3CCCN(Cc4ccc(Cl)cc4)C3)ccnc2c1CN[C@H](C)c1ccccc1

>  <Ki>
> 5000 nM

$$$$
>  <Compound>
COc1ncccc1-c1cc2nccc(C3CCCN(Cc4ccccc4)C3)n2n1 (stereo not shown)

>  <Ki>
500 to 5000 nM

$$$$
>  <Compound>
Cc1nn2c(C3CCCN(Cc4ccc(Cl)cc4)C3)ccnc2c1-c1cnn(C)c1 (stereo not shown)

>  <Ki>
500 to 5000 nM

$$$$

For every record below, what is its Ki?
1. CC(=O)N1CCC(CNCc2c(Cl)nn3c([C@H]4CCCN(Cc5ccccc5)C4)ccnc23)CC1
2. Cc1nn2c([C@H]3CCCN(Cc4ccccc4)C3)ccnc2c1CNC[C@H]1CCC(=O)NC1
3. Cc1nn2c([C@H]3CCCN(Cc4ccc(Cl)cc4)C3)ccnc2c1CNCC1CCOCC1
4. Clc1cncc(Cl)c1-c1cc2nccc(C3CCCN(Cc4ccccc4)C3)n2n1 (stereo not shown)

1. < 500 nM
2. 500 to 5000 nM
3. < 500 nM
4. 500 to 5000 nM

Just for reference, patent US12617797B2 is where these values come from.
